Cited source: patent US6878804B1

Biological target: T1, platelet-derived growth factor β-receptor (PDGFR-β)
T1 chain: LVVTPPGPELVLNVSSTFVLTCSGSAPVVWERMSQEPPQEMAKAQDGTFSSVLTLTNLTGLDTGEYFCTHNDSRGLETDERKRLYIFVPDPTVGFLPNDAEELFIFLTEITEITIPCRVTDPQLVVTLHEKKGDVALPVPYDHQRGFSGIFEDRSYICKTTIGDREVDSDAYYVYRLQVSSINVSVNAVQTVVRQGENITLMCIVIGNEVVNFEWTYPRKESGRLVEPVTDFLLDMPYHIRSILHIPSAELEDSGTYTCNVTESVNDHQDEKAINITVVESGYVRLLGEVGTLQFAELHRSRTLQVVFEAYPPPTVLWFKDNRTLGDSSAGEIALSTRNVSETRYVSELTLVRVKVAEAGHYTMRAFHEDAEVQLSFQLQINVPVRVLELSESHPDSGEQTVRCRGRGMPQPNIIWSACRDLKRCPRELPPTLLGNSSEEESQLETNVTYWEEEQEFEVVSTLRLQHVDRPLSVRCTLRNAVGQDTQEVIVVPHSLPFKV
Assay: solid-phase competition, displacement of 125I-PDGF-BB from plate-immobilised PDGFR-β
pIC50: −log10 of the molar value. Non-standard residues stand in square brackets, D forms with d.
If the reported pIC50 equals or exceeds 3, assign 1 (yes). If not, assign 0 (no).

Binder	Category label
cyclo(PESVRKKSI[dP]) (SMILES CC[C@H](C)[C@@H]1NC(=O)[C@H](CO)NC(=O)[C@H](CCCCN)NC(=O)[C@H](CCCCN)NC(=O)[C@H](CCCNC(=N)N)NC(=O)[C@H](C(C)C)NC(=O)[C@H](CO)NC(=O)[C@H](CCC(=O)O)NC(=O)[C@@H]2CCCN2C(=O)[C@H]2CCCN2C1=O, also called compound 5) [target cyclic peptide 5]	0 (no)
cyclo(PYAVRKKAY[dP]) (SMILES CC(C)[C@@H]1NC(=O)[C@H](C)NC(=O)[C@H](Cc2ccc(O)cc2)NC(=O)[C@@H]2CCCN2C(=O)[C@H]2CCCN2C(=O)[C@H](Cc2ccc(O)cc2)NC(=O)[C@H](C)NC(=O)[C@H](CCCCN)NC(=O)[C@H](CCCCN)NC(=O)[C@H](CCCNC(=N)N)NC1=O, also called ^LP-Y-A-V-R / ^DP-Y-A-K-K) [target cyclic peptide 10]	0 (no)
cyclo(PASVRKKSA[dP]) (SMILES CC(C)[C@@H]1NC(=O)[C@H](CO)NC(=O)[C@H](C)NC(=O)[C@@H]2CCCN2C(=O)[C@H]2CCCN2C(=O)[C@H](C)NC(=O)[C@H](CO)NC(=O)[C@H](CCCCN)NC(=O)[C@H](CCCCN)NC(=O)[C@H](CCCNC(=N)N)NC1=O, also called ^LP-A-S-V-R / ^DP-A-S-K-K) [target cyclic peptide 23]	0 (no)
cyclo(PYIVRKKPY[dP]) (SMILES CC[C@H](C)[C@@H]1NC(=O)[C@H](Cc2ccc(O)cc2)NC(=O)[C@@H]2CCCN2C(=O)[C@H]2CCCN2C(=O)[C@H](Cc2ccc(O)cc2)NC(=O)[C@@H]2CCCN2C(=O)[C@H](CCCCN)NC(=O)[C@H](CCCCN)NC(=O)[C@H](CCCNC(=N)N)NC(=O)[C@H](C(C)C)NC1=O, also called ^LP-Y-I-V-R / ^DP-Y-P-K-K) [target cyclic peptide 7]	0 (no)
cyclo(PYYVRKKYY[dP]) (SMILES CC(C)[C@@H]1NC(=O)[C@H](Cc2ccc(O)cc2)NC(=O)[C@H](Cc2ccc(O)cc2)NC(=O)[C@@H]2CCCN2C(=O)[C@H]2CCCN2C(=O)[C@H](Cc2ccc(O)cc2)NC(=O)[C@H](Cc2ccc(O)cc2)NC(=O)[C@H](CCCCN)NC(=O)[C@H](CCCCN)NC(=O)[C@H](CCCNC(=N)N)NC1=O, also called ^LP-Y-Y-V-R / ^DP-Y-Y-K-K) [target cyclic peptide 8]	1 (yes)
cyclo(PWYVRKKYW[dP]) (SMILES CC(C)[C@@H]1NC(=O)[C@H](Cc2ccc(O)cc2)NC(=O)[C@H](Cc2c[nH]c3ccccc23)NC(=O)[C@@H]2CCCN2C(=O)[C@H]2CCCN2C(=O)[C@H](Cc2c[nH]c3ccccc23)NC(=O)[C@H](Cc2ccc(O)cc2)NC(=O)[C@H](CCCCN)NC(=O)[C@H](CCCCN)NC(=O)[C@H](CCCNC(=N)N)NC1=O, also called ^LP-W-Y-V-R / ^DP-W-Y-K-K) [target cyclic peptide 14]	1 (yes)
cyclo(PYKVRKKKY[dP]) (SMILES CC(C)[C@@H]1NC(=O)[C@H](CCCCN)NC(=O)[C@H](Cc2ccc(O)cc2)NC(=O)[C@@H]2CCCN2C(=O)[C@H]2CCCN2C(=O)[C@H](Cc2ccc(O)cc2)NC(=O)[C@H](CCCCN)NC(=O)[C@H](CCCCN)NC(=O)[C@H](CCCCN)NC(=O)[C@H](CCCNC(=N)N)NC1=O, also called ^LP-Y-K-V-R / ^DP-Y-K-K-K) [target cyclic peptide 12]	0 (no)
cyclo(PAWVRKKWA[dP]) (SMILES CC(C)[C@@H]1NC(=O)[C@H](Cc2c[nH]c3ccccc23)NC(=O)[C@H](C)NC(=O)[C@@H]2CCCN2C(=O)[C@H]2CCCN2C(=O)[C@H](C)NC(=O)[C@H](Cc2c[nH]c3ccccc23)NC(=O)[C@H](CCCCN)NC(=O)[C@H](CCCCN)NC(=O)[C@H](CCCNC(=N)N)NC1=O, also called ^LP-A-W-V-R / ^DP-A-W-K-K) [target cyclic peptide 21]	0 (no)
cyclo(PEIVRKKPI[dP]) (SMILES CC[C@H](C)[C@@H]1NC(=O)[C@H](CCC(=O)O)NC(=O)[C@@H]2CCCN2C(=O)[C@H]2CCCN2C(=O)[C@H]([C@@H](C)CC)NC(=O)[C@@H]2CCCN2C(=O)[C@H](CCCCN)NC(=O)[C@H](CCCCN)NC(=O)[C@H](CCCNC(=N)N)NC(=O)[C@H](C(C)C)NC1=O, mimic of PDGF loop III on a diproline template; also called compound 1) [target cyclic peptide 1]	0 (no)
cyclo(PAKVRKKKA[dP]) (SMILES CC(C)[C@@H]1NC(=O)[C@H](CCCCN)NC(=O)[C@H](C)NC(=O)[C@@H]2CCCN2C(=O)[C@H]2CCCN2C(=O)[C@H](C)NC(=O)[C@H](CCCCN)NC(=O)[C@H](CCCCN)NC(=O)[C@H](CCCCN)NC(=O)[C@H](CCCNC(=N)N)NC1=O, also called ^LP-A-K-V-R / ^DP-A-K-K-K) [target cyclic peptide 24]	0 (no)
